# MEASUREMENT_TARGET: 5-hydroxytryptamine receptor 1E (Homo sapiens)
# Sequence (P28566 whole entry): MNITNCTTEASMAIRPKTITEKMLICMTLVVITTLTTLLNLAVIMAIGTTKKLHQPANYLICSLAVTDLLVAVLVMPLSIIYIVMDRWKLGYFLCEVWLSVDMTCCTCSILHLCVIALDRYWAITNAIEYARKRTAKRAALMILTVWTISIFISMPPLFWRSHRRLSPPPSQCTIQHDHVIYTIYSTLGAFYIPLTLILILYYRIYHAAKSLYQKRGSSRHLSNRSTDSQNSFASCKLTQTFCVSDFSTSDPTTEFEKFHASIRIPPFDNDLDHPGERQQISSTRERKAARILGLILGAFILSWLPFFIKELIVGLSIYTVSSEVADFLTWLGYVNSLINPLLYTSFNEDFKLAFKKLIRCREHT
pKi: −log10 of the molar value.
MEASUREMENT_NAME: pKi

Given `CCCCN1CCC(COC(=O)c2cc(Cl)c(N)c3c2OCCO3)CC1` , state its recorded pKi.
< 5.00

* * *

# MEASUREMENT_TARGET: 5-hydroxytryptamine receptor 2C (Sus scrofa, UniProt G7ZKZ7)
# Sequence (G7ZKZ7 whole entry): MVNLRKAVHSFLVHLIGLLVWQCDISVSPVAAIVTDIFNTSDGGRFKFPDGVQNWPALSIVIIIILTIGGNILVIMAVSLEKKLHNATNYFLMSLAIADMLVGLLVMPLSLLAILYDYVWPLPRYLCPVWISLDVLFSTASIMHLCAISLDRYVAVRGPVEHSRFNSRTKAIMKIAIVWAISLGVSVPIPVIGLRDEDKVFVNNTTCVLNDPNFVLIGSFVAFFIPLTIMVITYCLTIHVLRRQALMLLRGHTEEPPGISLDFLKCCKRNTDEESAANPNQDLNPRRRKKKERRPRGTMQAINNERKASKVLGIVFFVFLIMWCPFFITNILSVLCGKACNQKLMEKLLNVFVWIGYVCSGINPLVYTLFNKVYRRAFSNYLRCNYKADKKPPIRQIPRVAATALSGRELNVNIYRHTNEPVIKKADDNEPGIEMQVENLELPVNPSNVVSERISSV
MEASUREMENT_NAME: pKi
// field semantics: pKi = negative decimal log of concentration (mol/L)

# returns recorded pKi (system: 5-hydroxytryptamine receptor 2C (Sus scrofa, UniProt G7ZKZ7)) for CCCCN1CCC(COC(=O)c2cc(Cl)c(N)c3c2OCCO3)CC1 [CAS_121881]
6.90

* * *

# MEASUREMENT_TARGET: Beta-1 adrenergic receptor (Homo sapiens, UniProt P08588)
# Sequence (P08588 whole entry): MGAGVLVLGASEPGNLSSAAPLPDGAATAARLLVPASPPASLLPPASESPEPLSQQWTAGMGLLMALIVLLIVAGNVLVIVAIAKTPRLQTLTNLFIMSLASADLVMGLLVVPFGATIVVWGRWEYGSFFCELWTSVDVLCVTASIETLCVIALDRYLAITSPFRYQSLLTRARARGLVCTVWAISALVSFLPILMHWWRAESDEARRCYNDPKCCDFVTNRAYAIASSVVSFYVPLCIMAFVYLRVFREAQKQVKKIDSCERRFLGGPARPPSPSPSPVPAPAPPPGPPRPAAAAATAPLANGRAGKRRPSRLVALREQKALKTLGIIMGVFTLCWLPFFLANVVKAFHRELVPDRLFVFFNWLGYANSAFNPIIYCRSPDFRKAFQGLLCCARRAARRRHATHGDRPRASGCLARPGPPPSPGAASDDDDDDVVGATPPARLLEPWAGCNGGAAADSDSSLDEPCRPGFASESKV
MEASUREMENT_NAME: pKi
// field semantics: pKi = negative decimal log of concentration (mol/L)

Given `CCCCN1CCC(COC(=O)c2cc(Cl)c(N)c3c2OCCO3)CC1` , state its recorded pKi.
6.00

* * *

Target sequence: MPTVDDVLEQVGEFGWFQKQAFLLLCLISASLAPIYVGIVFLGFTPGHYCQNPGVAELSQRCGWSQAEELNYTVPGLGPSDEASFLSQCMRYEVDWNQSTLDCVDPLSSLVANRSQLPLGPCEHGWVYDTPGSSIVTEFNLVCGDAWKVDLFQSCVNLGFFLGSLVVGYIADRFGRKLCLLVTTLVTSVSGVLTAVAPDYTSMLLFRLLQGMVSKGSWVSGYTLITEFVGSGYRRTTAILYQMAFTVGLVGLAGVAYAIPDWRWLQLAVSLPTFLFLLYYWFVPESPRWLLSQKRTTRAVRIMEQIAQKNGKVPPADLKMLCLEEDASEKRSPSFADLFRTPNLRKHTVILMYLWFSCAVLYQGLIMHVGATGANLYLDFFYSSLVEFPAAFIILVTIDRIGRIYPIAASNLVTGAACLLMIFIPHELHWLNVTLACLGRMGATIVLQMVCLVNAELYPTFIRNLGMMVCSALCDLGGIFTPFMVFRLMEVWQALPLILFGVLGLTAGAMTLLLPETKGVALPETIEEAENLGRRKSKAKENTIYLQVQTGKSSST
MEASUREMENT_NAME: pKi
// field semantics: pKi = negative decimal log of concentration (mol/L)

Given `CCCCN1CCC(COC(=O)c2cc(Cl)c(N)c3c2OCCO3)CC1` , state its recorded pKi.
6.00
